Values from PubChem BioAssay (NCI)

Tested on: MALME-3M melanoma
Assay: NCI-60 one-dose screen, 48 h (100 = growth as untreated, 0 = no growth, -100 = all killed)
Details: 10 µM unless noted
This is part of a sample that, as a whole, favours compounds with a hit. Of some 83,000 tested, about 20% had one in any assay. Active and inactive are the calls of the source. The calls were made as follows: active = growth percent below 10; inactive = the rest.
Task for the reader: assign each of the following compounds its reported growth.

COc1cc(/C=C2\CCC/C(=C\c3cc(CN4CCCC4)c(O)c(OC)c3)C2=O)cc(CN2CCCC2)c1O	81.6% (inactive)

// batch mode: one growth value per listed entry
1. O=C1N=c2ccccc2=C1c1sc(=S)n(C2CC(=O)N(c3ccc(Cl)cc3)C2=O)c1O (stereo not given)
2. O=C(/C=C/c1ccc(Cl)s1)c1ccc(Cl)s1
3. COc1cc(-c2nn(-c3cccc(NC(=O)CCN4CCN(C)CC4)c3)cc2-c2ccncc2)ccc1Cl
4. COc1ccc(/C=C(\C#N)c2cc3ccccc3[nH]2)cc1

Response line:
["102% (inactive)", "114% (inactive)", "38% (inactive)", "52% (inactive)"]

----------
Tested on: NCI-H460 lung
Test: NCI-60 one-dose screen, 48 h
Conditions: 10 µM unless noted
The panel holds about 83,000 compounds, 20% with a hit somewhere; the sample as a whole holds those more often. Calls of active or inactive are those of the source. How the source made its calls: active means growth percent below 10; inactive means the rest.
Hello, when you answer, please use one of the following outcomes: 1 (active), -1 (inactive)

CCOC(=O)c1nc2c3ccccc3cnn2c1C(=O)c1ccc(OC)cc1	-1

Prompt line: Name the outcome recorded for N#CC1=C(N)Oc2c(sc3c(Br)cccc23)C1c1ccccn1 (stereo not drawn) in the assay.
Response line: -1

Prompt line: Please give the result for "COc1ccc(CN2CCc3c(Cl)nc(N)nc3C2=O)c(OC)c1" too.
Response line: 1

Prompt line: // same read-out, input: Cc1c(O)c(O)cc2c3c(oc12)CC(c1ccc2c(c1)OCO2)CC3=O (stereo not drawn)
Response line: -1

Prompt line: Now consider Cn1ccnc1CN1CCSC(C(=O)Nc2ccccc2)C1 (stereo not drawn) .
Response line: -1

Prompt line: Another molecule: "Cc1cc2nc(C(Cl)Cl)nc(-c3ccc(Cl)cc3)n2n1"
Response line: 1

Prompt line: Same question, "CCOC(=O)CCCn1c(-c2ccccc2)cc(-c2ccccc2)c(C#N)c1=O" this time
Response line: -1

Prompt line: What do you have for CCCCCC#CC1OC23CCCCC2C(C#N)(C(=N)O3)C1(C#N)C#N (stereo not drawn) ?
Response line: -1

Prompt line: Now the same for CCCN1C(=O)/C(=c2\sc3n(c2=O)C2C(NN=3)N(CC)C(=O)N2CC)c2ccccc21 (stereo not drawn)
Response line: 1

Prompt line: Quick one: "CN(C)CCCn1c2c(c3ccc(N4CCNCC4)cc3c1=O)C(=O)c1ccccc1-2"
Response line: 1

Prompt line: Another: "O=C(/C=C/c1ccc(F)cc1)Nc1ncc(Cc2ccc(F)cc2)s1"
Response line: -1

Prompt line: Let us now turn to "COc1cc(N=Nc2ccc(O)c3ncccc23)c2ncccc2c1"
Response line: -1

Prompt line: Input "Cc1nonc1-c1ccc2c(c1)OCO2"
Response line: -1

Prompt line: Proceed to "COc1ccc(-c2ccc(-c3ccc(C(=N)N)cn3)o2)cc1Cl"
Response line: 1

Prompt line: What do you have for "COc1ccc(Oc2nc(Nc3ccc(N4CCOCC4)cc3)ncc2NC(=O)c2cc(OC)cc(OC)c2)cc1" ?
Response line: -1

Prompt line: Next: O=C(CC1(O)C(=O)Nc2ccc(Br)cc21)c1ccc(Cl)cc1 (stereo not drawn)
Response line: -1

Prompt line: Next up: "CCN(CC)CCOc1ccccc1C"
Response line: -1

Prompt line: Same question, "Cc1ccc(-c2nc3nc(-c4ccc(Br)cc4)nc(N4CCCNCC4)c3o2)cc1" this time
Response line: 1

Prompt line: Now give it for "O=C1c2cc3c(cc2-c2c1c1ccc(Cl)cc1c(=O)n2CCCn1ccnc1)OCO3" too.
Response line: 1

Prompt line: Also need "N#Cc1c(-c2cccc(F)c2)cc(-c2cccnc2)[nH]c1=O" , thanks.
Response line: -1

Prompt line: Same again, this time with COc1ccc(C2Nc3nc(SC)nc(N)c3N=C3c4ccccc4CCC32)cc1 (stereo not drawn)
Response line: -1

----------
System: SNB-19 CNS
Experiment: NCI-60 one-dose screen, 48 h (100 = growth as untreated, 0 = no growth, -100 = all killed)
Details: 10 µM unless noted
This is part of a sample that, as a whole, favours compounds with a hit. Of some 83,000 tested, about 20% had one in any assay.
Assignment: determine reported growth for the given compounds.
Give bare numbers, in %.

Before answering, review these 10 worked examples.
CCOC(=O)C(=Cc1ccc(C#N)cc1)C(=O)OCC	65.2
COc1ccc2nc3cc(Cl)ccc3c(NCCCNCCC(C)O)c2c1 (stereo not given)	-25.6
Cc1nc2sc(C(=O)Nc3cccc4ccccc34)c(N)c2cc1C(=O)/C=C/c1ccccc1	-27.1
N=C(N)c1ccc(-c2ccc(-c3ccc(F)cc3)s2)nc1	80.1
Nc1ncnc2c1C(c1ccc([N+](=O)[O-])cc1)c1sc3c(F)cccc3c1O2 (stereo not given)	102
Nc1[nH]nc(Nc2ccccc2)c1-c1nc2ccccc2s1	34
Fc1ccc(NC(c2ccc(F)cc2)C2CCN(CCCCc3ccccc3)CC2)cc1 (stereo not given)	50
Cc1ccc(C(=O)Nc2nc3c(s2)CN(Cc2ccccc2)CC3)cn1	92.3
S=c1nc(CS)[nH]c2ccccc12	92.5
CN1CCN(Cc2ccc(NC(=O)c3nc4ccc5[nH]ncc5c4c4c3CCCC4)cc2C(F)(F)F)CC1	-88.8

Provide reported growth for each item, in the same order as listed.
1. Clc1ccc2c(NCCN3CCN(c4ccnc(N5CCCC5)n4)CC3)ccnc2c1
2. Cc1ccc(Cc2cnc(NC(=O)c3cc(C)oc3C)s2)cc1

Response line:
1: 53.7; 2: 84.2

List reported growth for each of these compounds:
1. COc1ccc(/C=N/NC(=O)CN2CCN(c3cc4c(cc3F)c(=O)c(C(=O)O)cn4C3CC3)CC2)cc1O
2. COc1ccc(/C=C2/C(=O)N=C3N2NC(c2ccccc2)=CN3c2ccccc2)cc1
3. Cc1nc2sc(C(=O)Nc3cccc(Cl)c3C)c(N)c2cc1C(O)c1ccccc1 (stereo not given)
4. O=c1oc2c(Br)cc(Br)cc2cc1-c1cc(-c2ccc(-c3cc(-c4cc5cc(Br)cc(Br)c5oc4=O)nc(-c4cc5cc(Br)cc(Br)c5oc4=O)c3)cc2)cc(-c2cc3cc(Br)cc(Br)c3oc2=O)n1

Response line:
1: 94.4; 2: 97.7; 3: 34.7; 4: 101

Kindly give each listed record's growth.
1. CC(=O)Nc1c(I)c(NC(C)=O)c(I)c(C(=O)O)c1I
2. N#CC(Cc1cccc2ccccc12)c1cc2ccccc2[nH]1 (stereo not given)
3. CCN1C(=O)N(c2ccccc2)C2NC(=S)N(/N=C/C=C/c3ccccc3)C21 (stereo not given)
4. CC1(Cc2ccccc2)CC2=C(C(=O)O1)C(c1ccccc1)NC(=O)N2 (stereo not given)

Response line:
1: 107; 2: 98.2; 3: 22.6; 4: 89.4

----------
System: SN12C renal
Test: NCI-60 one-dose screen, 48 h (100 = growth as untreated, 0 = no growth, -100 = all killed)
Conditions: 10 µM unless noted
About 83,000 compounds went through this panel and 20% of them were active in at least one assay; those are over-represented in the sample as a whole.
measure: growth (%)
Numbers only, in %.

CCC(=C(c1ccc(OCCCN(C)C)cc1)c1ccc(OCCCN(C)C)cc1)c1ccc(Cl)cc1	-94.1

Please report growth for every entry that follows.
1. Nc1nc(CSc2n[nH]c(N)n2)nc(Nc2ccccc2)n1
2. O=C1/C(=C/c2ccc(F)c(F)c2)CN(C(=O)C(Cl)Cl)C/C1=C\c1ccc(F)c(F)c1
3. COc1cc(/C=C2\CCC/C(=C\c3cc(CN4CCCC4)c(O)c(OC)c3)C2=O)cc(CN2CCCC2)c1O
4. COc1ccc(-c2nnc3n(C)c(=O)c4ccccc4n23)cc1O
5. CCCCCCCCCCCCCCCC(=O)O[C@@H]1[C@@H](O)[C@@H](O)C([C@H](NC(=O)[C@@H]2C[C@@H](CCC)CN2C)[C@H](C)Cl)O[C@@H]1SC (some centres undefined)
6. COc1ccc(-c2cc3cnc4ccccc4c3oc2=O)cc1
7. Nc1nc(N)c2c(n1)NC(c1ccc(Cl)cc1)CC(c1cccc(Nc3ccncc3)c1)=N2 (centres undefined)

Response line:
[101, -75.3, 30.3, 30.3, 104, 100, 53]

----------
Tested on: UACC-62 melanoma
Test: NCI-60 one-dose screen, 48 h
Conditions: 10 µM unless noted
About 83,000 compounds went through this panel and 20% of them were active in at least one assay; those are over-represented in the sample as a whole. Calls of active or inactive are those of the source. The calls were made as follows: active = growth percent below 10; inactive = the rest.
Can you answer with just one of these options? 1 (active), -1 (inactive)

OCc1cc(CN2CCCCC2)c(O)c2ncccc12	-1
COc1cc(F)c(/C=C/c2cc(/C=C/c3cc(OC)c(OC)cc3F)n(-c3cc(F)cc(F)c3)n2)cc1OC	-1
C/C=C(\C)C(=O)N[C@H]1CC[C@]2(C)C3CC[C@@]4(C)C(CC[C@@H]4C(C)N(C)C)C3CCC2[C@H]1OC(C)=O (stereo not given in full)	1
COc1ccc(/C(C)=C(\c2ccc(OCCN3CCOCC3)cc2)c2ccc(OC(=O)C3CCCCC3)cc2)cc1	-1
Nc1nc(Nc2cccnc2)sc1C(=O)c1ccccc1F	-1

Prompt line: Please state the recorded outcome for this molecule: "O=C(CCCOc1ccc(Br)cc1)Nc1ncc(Cc2ccc(F)cc2)s1"
Response line: -1

Prompt line: Next entry: COc1ccc(C(c2cc(OC)c(OC)c(OC)c2)n2ccnc2)cc1O (stereo not given)
Response line: -1

Prompt line: What would you report for "N#Cc1ccccc1OCC(=O)Nc1nc2c(s1)COc1ccccc1-2" ?
Response line: -1

Prompt line: Please give the result for "Nc1ncc(-c2ccc3ncnc(N4CCc5ccc(Cl)cc54)c3c2)cc1C(F)(F)F" too.
Response line: -1
